- Test Target: Glucocorticoid receptor (Rattus norvegicus) (UniProt P06536)
- Sequence (whole entry): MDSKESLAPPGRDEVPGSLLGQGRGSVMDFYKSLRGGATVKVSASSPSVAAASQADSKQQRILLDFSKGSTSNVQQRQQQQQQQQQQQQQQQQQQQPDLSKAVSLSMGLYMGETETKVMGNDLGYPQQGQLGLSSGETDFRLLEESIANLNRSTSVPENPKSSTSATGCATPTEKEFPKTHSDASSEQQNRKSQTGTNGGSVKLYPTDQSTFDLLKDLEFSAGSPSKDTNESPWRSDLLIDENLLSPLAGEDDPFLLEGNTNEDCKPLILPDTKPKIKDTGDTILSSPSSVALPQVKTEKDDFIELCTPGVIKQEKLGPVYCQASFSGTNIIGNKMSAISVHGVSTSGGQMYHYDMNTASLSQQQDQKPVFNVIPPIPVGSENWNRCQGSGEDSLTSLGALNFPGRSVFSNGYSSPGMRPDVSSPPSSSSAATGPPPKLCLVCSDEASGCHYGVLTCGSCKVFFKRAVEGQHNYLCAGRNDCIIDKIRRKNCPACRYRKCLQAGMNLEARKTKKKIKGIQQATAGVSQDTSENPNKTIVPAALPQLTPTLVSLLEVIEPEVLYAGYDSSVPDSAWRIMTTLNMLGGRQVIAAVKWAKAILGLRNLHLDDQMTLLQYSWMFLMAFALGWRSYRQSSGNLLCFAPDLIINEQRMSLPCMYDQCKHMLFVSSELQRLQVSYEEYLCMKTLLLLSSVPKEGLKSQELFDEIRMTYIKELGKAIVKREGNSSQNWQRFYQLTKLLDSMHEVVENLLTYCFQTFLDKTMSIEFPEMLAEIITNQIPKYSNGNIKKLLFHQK
- Assay Info: Transactivation activity at glucocorticoid receptor in rat H4II-E cells assessed as induction of tyrosine amino transferase at 1 uM relative to control
- Assay type: cell-based

Smiles	Test Target	Emax, %
C[C@]12CCC(=O)C=C1CC[C@@H]1[C@@H]2[C@@H](O)C[C@@]2(C)[C@H]1CC[C@]2(O)C(=O)CSc1nc2ccccc2s1	Glucocorticoid receptor (Rattus norvegicus) (UniProt P06536)	0
C[C@@H]1C[C@H]2[C@@H]3CCC4=CC(=O)C=C[C@]4(C)[C@@]3(F)[C@@H](O)C[C@]2(C)[C@@]1(O)C(=O)CSc1nc2ccccc2s1	Glucocorticoid receptor (Rattus norvegicus) (UniProt P06536)	33
C[C@]12CCC(=O)C=C1CC[C@@H]1[C@@H]2[C@@H](O)C[C@@]2(C)[C@H]1CC[C@]2(OC(=O)c1ccco1)C(=O)CSc1ccc2ccccc2n1	Glucocorticoid receptor (Rattus norvegicus) (UniProt P06536)	11
